Each entry below carries its recorded IC50.
# TGT: 92 kDa gelatinase of human origin (Homo sapiens, UniProt P14780)
# Sequence (P14780 94-707): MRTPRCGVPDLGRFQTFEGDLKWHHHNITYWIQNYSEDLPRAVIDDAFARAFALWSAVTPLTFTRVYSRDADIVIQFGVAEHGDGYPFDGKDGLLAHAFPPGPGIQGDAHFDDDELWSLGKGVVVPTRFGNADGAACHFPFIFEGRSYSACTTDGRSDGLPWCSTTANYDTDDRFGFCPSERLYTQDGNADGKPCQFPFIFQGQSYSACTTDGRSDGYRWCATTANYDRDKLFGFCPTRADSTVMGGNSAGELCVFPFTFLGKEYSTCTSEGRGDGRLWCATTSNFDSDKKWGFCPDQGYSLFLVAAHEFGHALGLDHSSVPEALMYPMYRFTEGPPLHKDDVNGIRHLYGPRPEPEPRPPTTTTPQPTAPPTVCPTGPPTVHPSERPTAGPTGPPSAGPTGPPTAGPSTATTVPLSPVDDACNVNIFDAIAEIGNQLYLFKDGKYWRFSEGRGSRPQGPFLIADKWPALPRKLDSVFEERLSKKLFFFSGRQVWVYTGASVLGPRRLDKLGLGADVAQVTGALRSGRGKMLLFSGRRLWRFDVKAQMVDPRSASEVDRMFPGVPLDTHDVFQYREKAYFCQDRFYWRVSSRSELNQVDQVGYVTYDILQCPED
# EXPERIMENT DESCRIPTION: Activity on gelatinase, radiomarked gelatin
# Type: biochemical
# CONDITION INFO: test performed with radiomarked gelatin; read-out: C150 (nM) gelatinase 92 kDa*
OBSERVATION TYPE: IC50 (nM)

>  <MOLECULE>
CNC(=O)[C@H](Cc1ccc(OC)cc1)NC(=O)[C@](O)(CC(C)C)C(C)N(O)C=O (mixture of isomers)

>  <OBSERVATION TYPE>
IC50

>  <MEASURE UNIT>
nM

>  <MEASURED VALUE>
17

$$$$
>  <MOLECULE>
CNC(=O)[C@H](Cc1ccc(F)cc1)NC(=O)[C@](O)(CC(C)C)[C@H](C)C(=O)NO

>  <OBSERVATION TYPE>
IC50

>  <MEASURE UNIT>
nM

>  <MEASURED VALUE>
2

$$$$
>  <MOLECULE>
CCC[C@H](C(=O)NO)[C@@](O)(CC(C)C)C(=O)N[C@@H](Cc1ccc(Cl)cc1)C(=O)NC

>  <OBSERVATION TYPE>
IC50

>  <MEASURE UNIT>
nM

>  <MEASURED VALUE>
1.6

$$$$
>  <MOLECULE>
CNC(=O)[C@@H](NC(=O)[C@](O)(CC(C)C)[C@H](C)C(=O)NO)C(C)(C)C

>  <OBSERVATION TYPE>
IC50

>  <MEASURE UNIT>
nM

>  <MEASURED VALUE>
16

$$$$
>  <MOLECULE>
CC(C)C[C@@](O)(C(=O)N[C@@H](Cc1ccc(Cl)cc1)C(=O)NCC/C(N)=N/O)[C@H](C)C(=O)NO

>  <OBSERVATION TYPE>
IC50

>  <MEASURE UNIT>
nM

>  <MEASURED VALUE>
1.6

$$$$
